# TGI per record follows
Tested on: PC-3 prostate
run-description: NCI tumour cell line growth inhibition, 48 h

COc1ccc2c(n1)Sc1nc3ccccc3nc1N2    > 100 µM

Checklist item: TGI tested on PC-3 prostate, entry "CSc1nc(-c2ccccc2)[nH]c(=O)n1" , value?
> 100 µM

Checklist item: TGI tested on PC-3 prostate, entry "Cc1cc(-c2nc3sc(C)cn3c2/C=N/N=C(N)N)c(C)s1" , value?
15.5 µM

Checklist item: TGI tested on PC-3 prostate, entry "Cc1nc(C(N)=S)sc1C(=O)CC(=O)C(=O)Nc1ccc(Br)cc1" , value?
> 100 µM

Checklist item: TGI tested on PC-3 prostate, entry "Cc1csc2nc(-c3cccc([N+](=O)[O-])c3)c(/C=N/N=C(N)N)n12" , value?
3.08 µM

Checklist item: TGI tested on PC-3 prostate, entry "C/C(=N\O)c1ccc(OCc2cc(C(F)(F)F)cc(C(F)(F)F)c2)cc1" , value?
> 100 µM
